// reported hphob2 (hydrophobic derivatives 2, insulin dimers) per item
- assayComment: Chemical stability of insulin formulations by RPC (reverse phase chromatography)
- Type: physicochemical
- testConditions: formulated human insulin, 3 Zn2+ per hexamer; 45° C.
readoutType: hphob2 (hydrophobic derivatives 2, insulin dimers) (% formed/year)

compound	uom	experimentalResult
O=C(O)/C=C/c1ccc(/C=C2\SC(=O)NC2=O)cc1	% formed/year	17.5
CCN(CC)c1ccc(/C=C2\SC(=O)NC2=O)cc1	% formed/year	27.0
O=C(O)c1cc2cc(Br)ccc2cc1O [Example 533, 7-bromo-3-hydroxy-2-naphthoic acid]	% formed/year	23.4
O=C(O)COc1cccc(/C=C2\SC(=O)NC2=O)c1	% formed/year	23.4

====

// reported dimer per item
- assayComment: Chemical stability of insulin formulations by SEC (size exclusion chromatography)
- Format: physicochemical
- testConditions: formulated human insulin, 3 Zn2+ per hexamer; 15° C.

molecule	uom	dimer
O=C(O)COc1cccc(/C=C2\SC(=O)NC2=O)c1 [Example 461]	% formed/year	0.33
O=C(O)c1cc2cc(Br)ccc2cc1O [Example 533, 7-bromo-3-hydroxy-2-naphthoic acid]	% formed/year	0.45
O=C(O)/C=C/c1ccc(/C=C2\SC(=O)NC2=O)cc1 [Example 462]	% formed/year	0.28
CCN(CC)c1ccc(/C=C2\SC(=O)NC2=O)cc1 [Example 70]	% formed/year	0.69

====

- assayComment: Chemical stability of insulin formulations by RPC (reverse phase chromatography)
- Type: physicochemical
- testConditions: formulated human insulin, 3 Zn2+ per hexamer; 45° C.
readoutType: hphil (hydrophilic derivatives, desamido-insulins) (% formed/year)

molecule	experimentalResult
CCN(CC)c1ccc(/C=C2\SC(=O)NC2=O)cc1	56.2
O=C(O)c1cc2cc(Br)ccc2cc1O [Example 533, 7-bromo-3-hydroxy-2-naphthoic acid]	30.7
O=C(O)/C=C/c1ccc(/C=C2\SC(=O)NC2=O)cc1	20.4
O=C(O)COc1cccc(/C=C2\SC(=O)NC2=O)c1	29.9

====

// reported hphil (hydrophilic derivatives, desamido-insulins) per item
- assayComment: Chemical stability of insulin formulations by RPC (reverse phase chromatography)
- Assay type: physicochemical
- testConditions: formulated human insulin, 3 Zn2+ per hexamer; 30° C.
readoutType: hphil (hydrophilic derivatives, desamido-insulins) (% formed/year)

compound	experimentalResult
O=C(O)/C=C/c1ccc(/C=C2\SC(=O)NC2=O)cc1	4.07
O=C(O)COc1cccc(/C=C2\SC(=O)NC2=O)c1	5.12
CCN(CC)c1ccc(/C=C2\SC(=O)NC2=O)cc1	12.1
O=C(O)c1cc2cc(Br)ccc2cc1O [Example 533, 7-bromo-3-hydroxy-2-naphthoic acid]	6.76

====

// reported hphob1 (hydrophobic derivatives 1) per item
- assayComment: Chemical stability of insulin formulations by RPC (reverse phase chromatography)
- Format: physicochemical
- testConditions: formulated human insulin, 3 Zn2+ per hexamer; 45° C.

compound	hphob1 (hydrophobic derivatives 1)
O=C(O)/C=C/c1ccc(/C=C2\SC(=O)NC2=O)cc1	43.8 % formed/year
CCN(CC)c1ccc(/C=C2\SC(=O)NC2=O)cc1	78.8 % formed/year
O=C(O)COc1cccc(/C=C2\SC(=O)NC2=O)c1	52.6 % formed/year
O=C(O)c1cc2cc(Br)ccc2cc1O [Example 533, 7-bromo-3-hydroxy-2-naphthoic acid]	62.1 % formed/year

====

- assayComment: Chemical stability of insulin formulations by SEC (size exclusion chromatography)
- Format: physicochemical
- testConditions: formulated human insulin, 3 Zn2+ per hexamer; 30° C.
// reported dimer per item

molecule	dimer (% formed/year)
O=C(O)c1cc2cc(Br)ccc2cc1O [Example 533, 7-bromo-3-hydroxy-2-naphthoic acid]	2.86
O=C(O)/C=C/c1ccc(/C=C2\SC(=O)NC2=O)cc1	2.17
O=C(O)COc1cccc(/C=C2\SC(=O)NC2=O)c1	2.34
CCN(CC)c1ccc(/C=C2\SC(=O)NC2=O)cc1	3.55
